Target Under Test: human β2AR (human, UniProt P07550 2-365)
Test Description: cell-based or functional assay
Bridge positions count the residues as written; N and C are the ends. Square brackets hold non-standard residues; d marks the D form. Primed or numbered codes have the meaning given here. Azk = residue with azidated side chain, clicked to Pra; Pra′ = residue with alkynyl side chain, clicked to Azk
Recorded Endpoint: Shift
Answers are plain numbers.

- Binder: "Ac-RFN[Pra′]CRD[Azk]IQRMHLRQYELL-OH (triazole 4-8) [compound 40]"
  Shift: 37
- Binder: "Ac-KFN[Pra′]CRD[Azk]IQRMHLRQYELL-OH (triazole 4-8) [compound 41]"
  Shift: 44
- Binder: "Ac-KKKFN[Pra′]CRD[Azk]IQRMHLRQYELL-OH (triazole 6-10) [compound 42]"
  Shift: 42

Lab note: next binder to report on.
Any idea what its Shift is? The binder is Ac-FN[Pra′]CRD[Azk]IQRMHLRQYELL-OH (triazole 3-7) [compound 12] 31
